Published pIC50 for Tyrosine-protein phosphatase non-receptor type 2 (Homo sapiens, UniProt P17706), assembled from different documents, is shown next.
Lab note: report pIC50 as minus log10 of the concentration in molar units, number only.

- COMPOUND: "COc1nc(NCc2cn(C[C@H]3O[C@H](OC)[C@H](OCc4ccccc4)[C@@H](OCc4ccccc4)[C@H]3OCc3ccccc3)nn2)nc2c1ncn2Cc1cn(C[C@H]2O[C@H](OC)[C@H](OCc3ccccc3)[C@@H](OCc3ccccc3)[C@H]2OCc2ccccc2)nn1"
  MEASUREMENT_LABEL: "pIC50"
  QUANTITATIVE_READOUT: 5.54
- COMPOUND: "O=C1CN(c2c(O)cc(CCN3CCC4(CCOCC4)C3)cc2F)S(=O)(=O)N1"
  MEASUREMENT_LABEL: "pIC50"
  QUANTITATIVE_READOUT: 8.70
- COMPOUND: "COC1CCN(CCc2cc(O)c(N3CC(=O)NS3(=O)=O)c(F)c2)CC1"
  MEASUREMENT_LABEL: "pIC50"
  QUANTITATIVE_READOUT: 8.52

pIC50 on Tyrosine-protein phosphatase non-receptor type 2 (Homo sapiens, UniProt P17706) for COC[C@@H]1CCN(CCc2cc(O)c(N3CC(=O)NS3(=O)=O)c(F)c2)C1 is 9.00

pIC50 on Tyrosine-protein phosphatase non-receptor type 2 (Homo sapiens, UniProt P17706) for O=C1NC(=O)/C(=C/c2cccc(OCc3ccc(Cl)cc3)c2)N1 is 3.86

pIC50 on Tyrosine-protein phosphatase non-receptor type 2 (Homo sapiens, UniProt P17706) for O=C1NC(=O)/C(=C/c2cccc(OCCc3ccccc3)c2)N1 is 4.36

* * *

- TARGET_OR_TEST_SYSTEM: Tyrosine-protein phosphatase non-receptor type 2 (Homo sapiens)
- Sequence (P17706 whole entry): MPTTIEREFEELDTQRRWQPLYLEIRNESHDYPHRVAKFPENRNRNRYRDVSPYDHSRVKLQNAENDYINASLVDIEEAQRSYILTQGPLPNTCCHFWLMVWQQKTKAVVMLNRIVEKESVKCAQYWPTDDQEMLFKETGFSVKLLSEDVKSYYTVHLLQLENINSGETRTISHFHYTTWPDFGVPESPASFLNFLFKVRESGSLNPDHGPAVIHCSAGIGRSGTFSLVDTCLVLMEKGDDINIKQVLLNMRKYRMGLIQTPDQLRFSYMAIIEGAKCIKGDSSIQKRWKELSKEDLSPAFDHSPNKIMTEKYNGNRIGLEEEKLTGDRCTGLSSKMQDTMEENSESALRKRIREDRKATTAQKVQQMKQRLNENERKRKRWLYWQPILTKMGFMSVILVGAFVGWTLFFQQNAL
Published pIC50 for Tyrosine-protein phosphatase non-receptor type 2 (Homo sapiens), assembled from different documents, is shown next.
Lab note: report pIC50 as minus log10 of the concentration in molar units, number only.

// solved cases for pIC50 follow
- COMPOUND: "CO[C@H]1O[C@H](Cn2cc(CNc3nc(Cl)c4ncn(Cc5cn(C[C@H]6O[C@H](OC)[C@H](OCc7ccccc7)[C@@H](OCc7ccccc7)[C@@H]6OCc6ccccc6)nn5)c4n3)nn2)[C@@H](OCc2ccccc2)[C@H](OCc2ccccc2)[C@H]1OCc1ccccc1"
  TARGET_OR_TEST_SYSTEM: "Tyrosine-protein phosphatase non-receptor type 2 (Homo sapiens)"
  QUANTITATIVE_READOUT: 4.96
- COMPOUND: "O=C1CN(c2c(O)cc(CC3CCN(Cc4ccco4)C3)cc2F)S(=O)(=O)N1 (stereo not drawn)"
  TARGET_OR_TEST_SYSTEM: "Tyrosine-protein phosphatase non-receptor type 2 (Homo sapiens)"
  QUANTITATIVE_READOUT: 8.15
- COMPOUND: "COc1nc(NCc2cn(C[C@H]3O[C@H](OC)[C@H](OCc4ccccc4)[C@@H](OCc4ccccc4)[C@@H]3OCc3ccccc3)nn2)nc2c1ncn2Cc1cn(C[C@H]2O[C@H](OC)[C@H](OCc3ccccc3)[C@@H](OCc3ccccc3)[C@@H]2OCc2ccccc2)nn1"
  TARGET_OR_TEST_SYSTEM: "Tyrosine-protein phosphatase non-receptor type 2 (Homo sapiens)"
  QUANTITATIVE_READOUT: 4.79
- COMPOUND: "CCCCCCCCCCCCC/C=C/[C@@]12C(=O)O[C@@H](C)[C@@H]1[C@H]1C(=CC2CCCCCCCCCCCC)C(=O)O[C@H]1C (stereo partly drawn)"
  TARGET_OR_TEST_SYSTEM: "Tyrosine-protein phosphatase non-receptor type 2 (Homo sapiens)"
  QUANTITATIVE_READOUT: 4.50
- COMPOUND: "O=C1NC(=O)/C(=C/c2ccccc2OCc2ccc(Cl)cc2Cl)N1"
  TARGET_OR_TEST_SYSTEM: "Tyrosine-protein phosphatase non-receptor type 2 (Homo sapiens)"
  QUANTITATIVE_READOUT: 4.73
- COMPOUND: "CC(C)CCCN1CCCCC1Cc1ccc(O)c(N2CC(=O)NS2(=O)=O)c1F (stereo not drawn)"
  TARGET_OR_TEST_SYSTEM: "Tyrosine-protein phosphatase non-receptor type 2 (Homo sapiens)"
  QUANTITATIVE_READOUT: 8.15

Documented pIC50 of O=C1CN(c2c(O)ccc(CC3CCCCN3CCC3CCCC3)c2F)S(=O)(=O)N1 (stereo not drawn) : 8.30

Documented pIC50 of COc1cc(/C=C2\SC(=S)N(c3cccc(Cl)c3)C2=O)cc([N+](=O)[O-])c1O : 5.28

Documented pIC50 of CO[C@H]1O[C@H](Cn2cc(CNc3nc(Cl)c4ncn(Cc5cn(C[C@H]6O[C@H](OC)[C@H](OCc7ccccc7)[C@@H](OCc7ccccc7)[C@H]6OCc6ccccc6)nn5)c4n3)nn2)[C@H](OCc2ccccc2)[C@H](OCc2ccccc2)[C@H]1OCc1ccccc1 : 4.74

Documented pIC50 of O=C1CN(c2c(O)cc(CCN3CC(C(F)(F)F)C3)cc2F)S(=O)(=O)N1 : 8.30

Documented pIC50 of COc1ccc(COc2ccc(/C=C3\NC(=O)NC3=O)cc2)cc1 : 4.50

Documented pIC50 of O=C1CN(c2c(O)cc(CCN3CCC4(CCCC4)C3)cc2F)S(=O)(=O)N1 : 8.70

Documented pIC50 of CCCCCCCCCCCC[C@@H]1C=C2C(=O)O[C@@]3(C)O[C@@]4(C)OC(=O)[C@]1(C=O)[C@H]4[C@@H]23 : 5.03

Documented pIC50 of Cc1ccc(COc2cc(C(N)=O)cc3c(Br)c(C(F)(F)P(=O)(O)O)sc23)cc1C : 7.26

Documented pIC50 of O=C1NC(=O)/C(=C/c2cccc(OCCCc3ccccc3)c2)N1 : 4.65

Documented pIC50 of CO[C@H]1O[C@H](Cn2cc(Cn3cnc4c(Cl)nc(N)nc43)nn2)[C@@H](OCc2ccccc2)[C@H](OCc2ccccc2)[C@H]1OCc1ccccc1 : 4.52
